- Target Entity: PKMYT1 (human) (UniProt Q99640)
- Sequence (Q99640 whole entry, looked up): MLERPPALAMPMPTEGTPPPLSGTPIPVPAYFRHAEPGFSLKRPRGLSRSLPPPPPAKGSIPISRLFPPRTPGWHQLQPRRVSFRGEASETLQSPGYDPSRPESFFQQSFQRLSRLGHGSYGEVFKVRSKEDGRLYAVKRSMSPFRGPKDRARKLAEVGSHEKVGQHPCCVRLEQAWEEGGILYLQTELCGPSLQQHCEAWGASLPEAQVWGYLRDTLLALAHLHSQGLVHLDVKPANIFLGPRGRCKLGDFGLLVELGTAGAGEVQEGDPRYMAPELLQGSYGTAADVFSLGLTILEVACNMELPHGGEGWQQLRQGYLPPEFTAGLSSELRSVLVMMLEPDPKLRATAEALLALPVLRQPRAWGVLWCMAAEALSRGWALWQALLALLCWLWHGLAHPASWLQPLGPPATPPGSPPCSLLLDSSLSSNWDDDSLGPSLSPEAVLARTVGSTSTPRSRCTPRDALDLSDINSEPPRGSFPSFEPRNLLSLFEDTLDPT
- Assay Protocol: KINOMEscan competition binding
- Measurement Parameters: compound 10.0 µM
# reported kinase still bound, per cent of control; entries follow
State the answer as a number, implicitly in %.

Reference set, count: 7
CN1C(=O)c2ccccc2N(C)c2nc(Nc3ccc(N4CCC(O)CC4)cc3)ncc21
100
CN1C(=O)c2ccccc2N(C)c2nc(NS(=O)(=O)c3ccc(N)cc3)ncc21
100
COc1cc(N2CCC(O)CC2)ccc1Nc1ncc2c(n1)N1CCc3cccc(c31)C(=O)N2C
69
O=C1NC(=O)/C(=C/c2c[nH]c(=O)c(-c3ccc(N4CCNCC4)nc3)c2)S1
100
CN1CCN(c2ccc(C(=O)Nc3ncc4c(n3)N(C)c3ccccc3C(=O)N4C)cc2)CC1
93
COc1cc(N2CCN(C)CC2)ccc1Nc1ncc2c(n1)N(C)c1sccc1C(=O)N2C
92
COc1cc(N2CCN(C)CC2)ccc1Nc1ncc2c(n1)N(C)c1ccccc1N(C)C2=O
96

With those in mind, consider the next compound.
Input COc1cc(N2CCN(C)CC2)ccc1Nc1ncc2c(n1)Nc1ccccc1NC2=O . Output kinase still bound, per cent of control: 100
